Listed below: EC50 values for each entry.
assay-summary: NIH-3T3 fibroblast cytotoxicity, dose response, cytotoxicity control, cell-based, fluorescence, Alamar Blue, secondary assay (AID 2327);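 further: NIH-3T3 mouse fibroblasts cultured with fluconazole at 8 µg/mL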
Type: functional
Active and inactive are the calls of the source. No stated cut-off is given here; in the data, actives have a measured EC50 and inactives only a lower limit.

molecule	EC50
COc1ccc(NC(=O)C(=O)NNC(=O)c2ccc(Cl)cc2Cl)cc1	> 150 µM (inactive)
Cc1cc(Cl)ccc1NNC(=O)c1snnc1C	16.8 µM (inconclusive)
O=C1c2ccccc2C(=O)c2c1cccc2N1CCCC1	55.6 µM (active)
COc1ccc(-c2cc(C3CCN(Cc4cccc(C(F)(F)F)c4)CC3)[nH]n2)cc1	> 160 µM (inactive)
CCOc1cc(S(=O)(=O)NCc2ccccc2)c(OCC)cc1-n1cnnn1	> 150 µM (inconclusive)
O=C(NNc1ccccc1)C(=O)NNS(=O)(=O)c1ccc(CCCl)cc1	2.67 µM (inconclusive)
CC(C)(C)C1CCC(OC(=O)C[N+]2(C)CCCCC2)CC1 (configuration not stated)	18.1 µM (active)
